System name: T1, cynomolgus monkey BCMA (cynomolgus monkey, UniProt A0A2K5UD97 1-53)
T1 construct: Soluble analyte in SPR; construct not described; also called cyBCMA; Cyno BCMA
T1 sequence (A0A2K5UD97 entry or part of it): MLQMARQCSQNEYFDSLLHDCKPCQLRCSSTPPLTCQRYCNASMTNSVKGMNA
Test description: SPR, IgG on chip, cyBCMA analyte
Assay endpoint: Kd (nM)
Reply numerically in nM, unit not repeated.

>>> test_value("A02_Rd4_6nM_C05 (antibody, V domains shown, IgG) VH: EVQLLESGGGLVQPGGSLRLSCAASGFTFSSYAMNWVRQAPGKGLEWVSAIFASGGSTYYADSVKGRFTISRDNSKNTLYLQMNSLRAEDTAVYYCARYWPMTPWGQGTLVTVSS VL: EIVLTQSPGTLSLSPGERATLSCRASQSVSSSYLAWYQQKPGQAPRLLMYDASIRATGIPDRFSGSGSGTDFTLTISRLEPEDFAVYYCQQYQRWPLTFGQGTKVEIK")
0.95
>>> test_value("P5C1_VHVL (antibody, V domains shown, IgG; also called PC1) VH: EVQLLESGGGLVQPGGSLRLSCAASGFTFSSYPMSWVRQAPGKGLEWVSAIGGSGGSTYYADSVKGRFTISRDNSKNTLYLQMNSLRAEDTAVYYCARYWPMDSWGQGTLVTVSS VL: EIVLTQSPGTLSLSPGERATLSCRASQSVSSTYLAWYQQKPGQAPRLLIYDASSRAPGIPDRFSGSGSGTDFTLTISRLEPEDFAVYYCQQYSTSPLTFGQGTKVEIK")
15.2
>>> test_value("A02_Rd4_0.6nM_C26 (antibody, V domains shown, IgG) VH: EVQLLESGGGLVQPGGSLRLSCAASGFTFSSYAMNWVRQAPGKGLEWVSAILMSGGSTYYADSVKGRFTISRDNSKNTLYLQMNSLRAEDTAVYYCARYWPMSLWGQGTLVTVSS VL: EIVLTQSPGTLSLSPGERATLSCGPSQSVSSSYLAWYQQKPGQAPRLLMYDASIRATGIPDRFSGSGSGTDFTLTISRLEPEDFAVYYCQQYQSWPLTFGQGTKVEIK")
0.941
>>> test_value("COMBO_Rd4_0.6nM_C14 (antibody, V domains shown, IgG) VH: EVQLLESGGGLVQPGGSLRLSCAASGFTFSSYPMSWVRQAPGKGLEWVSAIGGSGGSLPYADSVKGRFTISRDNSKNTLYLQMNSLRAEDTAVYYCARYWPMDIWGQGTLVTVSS VL: EIVLTQSPGTLSLSPGERATLSCRASQSVSALYLAWYQQKPGQAPRLLMYDASIRATGIPDRFSGSGSGTDFTLTISRLEPEDFAVYYCQQYYGWPLTFGQGTKVEIK")
0.185

Kindly consider the entry below.
Given the binder COMBO_Rd4_6nM_C25 (antibody, V domains shown, IgG) VH: EVQLLESGGGLVQPGGSLRLSCAASGFTFSSYPMSWVRQAPGKGLEWVSAIGGSGGSTYYADSVKGRFTISRDNSKNTLYLQMNSLRAEDTAVYYCARYWPMDPWGQGTLVTVSS VL: EIVLTQSPGTLSLSPGERATLSCRASQSVSSPYLAWYQQKPGQAPRLLMYDASIRATGIPDRFSGSGSGTDFTLTISRLEPEDFAVYYCQQYQSWPLTFGQGTKVEIK , what is its reported Kd?
0.079
